Taken from ChEMBL document CHEMBL1201862.

# system: Replicative DNA helicase DnaB (Mycobacterium tuberculosis, UniProt P9WMR3)
# Sequence (P9WMR3 1-399, added parts left off): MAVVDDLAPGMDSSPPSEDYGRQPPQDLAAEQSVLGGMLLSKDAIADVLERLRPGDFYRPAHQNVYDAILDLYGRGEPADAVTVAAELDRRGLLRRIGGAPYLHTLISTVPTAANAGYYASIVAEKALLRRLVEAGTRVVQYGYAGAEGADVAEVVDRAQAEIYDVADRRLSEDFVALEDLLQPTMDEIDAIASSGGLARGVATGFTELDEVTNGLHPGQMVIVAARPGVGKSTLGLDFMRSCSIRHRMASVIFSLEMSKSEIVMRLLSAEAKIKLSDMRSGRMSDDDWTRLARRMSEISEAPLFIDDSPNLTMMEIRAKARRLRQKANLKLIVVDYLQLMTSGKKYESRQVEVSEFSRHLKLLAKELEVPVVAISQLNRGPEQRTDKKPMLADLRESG
# assay_protocol: DnaB intein splicing inhibitors, dose response, biochemical, cell-free fluorescence (AID 449749)
# Type: functional
The source made the active and inactive calls.
Outcomes: active, inactive

>>> print(df.to_string())
                                    compound  label_value
 0  COc1ccc(/C=C(/C#N)C(=O)Nc2ccc(O)cc2)cc1C(=O)O       active
 1  C[C@@H]1CC=C[C@H]2[C@H]1C(=O)N(Cc1ccccc1)[C@H]2c1ccc(F)c(Br)c1       active
 2  CC(C)c1n[nH]c2c1C(Cc1ccccc1)C(C#N)=C(N)O2 (stereo unspecified)       active
 3  Cc1n[nH]c(O)c1C(c1ccc(-c2ccc(F)cc2)o1)c1c(C)n[nH]c1O       active
 4  COC(=O)CSc1nc(N)c2c3c(sc2n1)C(c1ccccc1)SC(c1ccccc1)C3 (stereo unspecified)     inactive
 5                Oc1cc(-c2ccc(Br)cc2)[nH]n1       active
 6  Cc1n[nH]c2c1C(c1c(C)nn(-c3ccccc3)c1Cl)C(C#N)=C(N)O2 (stereo unspecified)       active
 7                        Nc1c(O)cccc1C(=O)O     inactive
 8  COc1cc(NC(C)CCCN)c2ncccc2c1 (stereo unspecified) [PRIMAQUINE PHOSPHATE]       active
 9        CCCCCCCCCCn1c2c(c(=N)c3c1CCC3)CCC2       active
10    Cn1nc(-c2ccccn2)nc2c(=O)n(C)c(=O)nc1-2       active

----------
# system: Sentrin-specific protease 7 (Homo sapiens, UniProt Q9BQF6);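 note: Luminescence-based dose-response confirmation of ultra-high-throughput screening hits, measuring inhibition of SENP7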
# Sequence (Q9BQF6 whole entry): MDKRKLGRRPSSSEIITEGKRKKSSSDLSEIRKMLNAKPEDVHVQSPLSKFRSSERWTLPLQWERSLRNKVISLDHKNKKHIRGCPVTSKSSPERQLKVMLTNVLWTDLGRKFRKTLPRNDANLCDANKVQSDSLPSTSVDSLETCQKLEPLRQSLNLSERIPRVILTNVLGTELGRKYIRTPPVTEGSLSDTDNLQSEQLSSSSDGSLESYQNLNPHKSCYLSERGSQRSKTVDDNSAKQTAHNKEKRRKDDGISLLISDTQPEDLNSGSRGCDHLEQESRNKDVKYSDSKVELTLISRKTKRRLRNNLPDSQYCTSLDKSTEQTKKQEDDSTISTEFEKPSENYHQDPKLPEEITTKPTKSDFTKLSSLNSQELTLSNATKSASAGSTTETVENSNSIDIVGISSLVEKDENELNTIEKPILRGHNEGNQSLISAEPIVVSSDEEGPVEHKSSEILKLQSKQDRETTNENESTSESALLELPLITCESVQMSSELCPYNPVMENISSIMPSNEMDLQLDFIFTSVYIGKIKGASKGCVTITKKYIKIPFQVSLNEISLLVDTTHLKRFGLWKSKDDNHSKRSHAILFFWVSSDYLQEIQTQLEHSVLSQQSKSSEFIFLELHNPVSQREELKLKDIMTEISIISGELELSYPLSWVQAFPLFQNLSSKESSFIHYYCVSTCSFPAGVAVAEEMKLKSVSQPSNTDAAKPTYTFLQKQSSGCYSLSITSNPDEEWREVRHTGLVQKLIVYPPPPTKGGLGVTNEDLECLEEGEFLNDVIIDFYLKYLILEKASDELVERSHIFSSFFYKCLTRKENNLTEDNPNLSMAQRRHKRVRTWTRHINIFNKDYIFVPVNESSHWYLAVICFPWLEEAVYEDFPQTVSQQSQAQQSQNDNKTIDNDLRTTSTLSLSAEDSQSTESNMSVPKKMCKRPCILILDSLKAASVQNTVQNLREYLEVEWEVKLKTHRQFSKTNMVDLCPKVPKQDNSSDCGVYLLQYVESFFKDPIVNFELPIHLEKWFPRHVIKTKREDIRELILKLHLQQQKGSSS
# Assay type: functional
Active and inactive are the calls of the source.
// reported IC50 per item
assay_metric: IC50

                                 mol_smiles        test_value
0          O=C(Cc1ccccc1F)Nc1ccc(SC(F)F)cc1  13.7 µM (active)
1       O=C(/C=C/c1cccs1)c1ccc(N2CCOCC2)cc1  2.77 µM (active)
2  O=C(Nc1ccc(NC(=O)c2cccs2)c(Cl)c1)c1cccs1  6.62 µM (active)
3         Cc1ccc(-c2nnc(Nc3ccccc3)[nH]2)cc1  7.36 µM (active)
4           CC(=O)c1sc(N/N=C\c2ccccc2O)nc1C   3.4 µM (active)
5  COc1cc(C#Cc2ccc3cc(CCCO)oc(=O)c3c2)cc(OC)c1  2.81 µM (active)
6           O/C(=C\c1nc2ccccc2[nH]1)c1cccs1  7.98 µM (active)
7  O=[N+]([O-])c1ccc(-c2nc3cc([N+](=O)[O-])ccc3[nH]2)cc1    17 µM (active)

----------
# system: Dual specificity protein kinase CLK1 (Homo sapiens, UniProt P49759)
# Sequence (P49759 whole entry): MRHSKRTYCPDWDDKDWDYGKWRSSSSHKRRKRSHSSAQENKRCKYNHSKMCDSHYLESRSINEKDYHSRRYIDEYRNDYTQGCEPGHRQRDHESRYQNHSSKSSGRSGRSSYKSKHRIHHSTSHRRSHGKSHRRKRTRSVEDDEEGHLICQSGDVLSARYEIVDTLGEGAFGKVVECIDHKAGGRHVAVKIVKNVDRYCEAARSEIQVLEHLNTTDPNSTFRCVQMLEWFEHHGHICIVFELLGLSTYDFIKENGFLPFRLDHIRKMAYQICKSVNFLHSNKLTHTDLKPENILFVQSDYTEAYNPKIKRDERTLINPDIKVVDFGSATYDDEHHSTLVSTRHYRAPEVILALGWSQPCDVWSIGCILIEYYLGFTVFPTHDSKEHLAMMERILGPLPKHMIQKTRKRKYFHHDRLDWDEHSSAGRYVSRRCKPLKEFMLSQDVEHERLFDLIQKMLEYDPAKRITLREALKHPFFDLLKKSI
# assay_protocol: CLK1 kinase inhibitors, off-target check, dose response, selectivity assay for Dyrk1A inhibitor project, biochemical, cherry-picked samples (AID 588811)
Activity calls are given as the source filed them.
// reported AC50 per item
assay_metric: AC50

In [3]: df
Out[3]:
                                 mol_smiles                                    system         test_value
0  CCOC(=O)c1ccc(-c2ccc3ncnc(N(C)Cc4sccc4C)c3c2)o1  Dual specificity protein kinase CLK1 (Homo sapiens, UniProt P49759)   1470 nM (active)
1  Cc1noc(NS(=O)(=O)c2ccc(NC(=O)c3oc4ccc(Cl)cc4c3C)cc2)c1C  Dual specificity protein kinase CLK1 (Homo sapiens, UniProt P49759)  10000 nM (active)
2  Cc1occc1CNc1ncnc2ccc(-c3ccc4c(c3)OCO4)cc12  Dual specificity protein kinase CLK1 (Homo sapiens, UniProt P49759)   11.8 nM (active)
3  Clc1ccc(CNc2ccnc(-c3ccc4[nH]ncc4c3)n2)cc1Cl  Dual specificity protein kinase CLK1 (Homo sapiens, UniProt P49759)   7.84 nM (active)

----------
# system: Fatty acid synthase (Homo sapiens, UniProt P49327)
# Sequence (P49327 whole entry, the tested form may be a part): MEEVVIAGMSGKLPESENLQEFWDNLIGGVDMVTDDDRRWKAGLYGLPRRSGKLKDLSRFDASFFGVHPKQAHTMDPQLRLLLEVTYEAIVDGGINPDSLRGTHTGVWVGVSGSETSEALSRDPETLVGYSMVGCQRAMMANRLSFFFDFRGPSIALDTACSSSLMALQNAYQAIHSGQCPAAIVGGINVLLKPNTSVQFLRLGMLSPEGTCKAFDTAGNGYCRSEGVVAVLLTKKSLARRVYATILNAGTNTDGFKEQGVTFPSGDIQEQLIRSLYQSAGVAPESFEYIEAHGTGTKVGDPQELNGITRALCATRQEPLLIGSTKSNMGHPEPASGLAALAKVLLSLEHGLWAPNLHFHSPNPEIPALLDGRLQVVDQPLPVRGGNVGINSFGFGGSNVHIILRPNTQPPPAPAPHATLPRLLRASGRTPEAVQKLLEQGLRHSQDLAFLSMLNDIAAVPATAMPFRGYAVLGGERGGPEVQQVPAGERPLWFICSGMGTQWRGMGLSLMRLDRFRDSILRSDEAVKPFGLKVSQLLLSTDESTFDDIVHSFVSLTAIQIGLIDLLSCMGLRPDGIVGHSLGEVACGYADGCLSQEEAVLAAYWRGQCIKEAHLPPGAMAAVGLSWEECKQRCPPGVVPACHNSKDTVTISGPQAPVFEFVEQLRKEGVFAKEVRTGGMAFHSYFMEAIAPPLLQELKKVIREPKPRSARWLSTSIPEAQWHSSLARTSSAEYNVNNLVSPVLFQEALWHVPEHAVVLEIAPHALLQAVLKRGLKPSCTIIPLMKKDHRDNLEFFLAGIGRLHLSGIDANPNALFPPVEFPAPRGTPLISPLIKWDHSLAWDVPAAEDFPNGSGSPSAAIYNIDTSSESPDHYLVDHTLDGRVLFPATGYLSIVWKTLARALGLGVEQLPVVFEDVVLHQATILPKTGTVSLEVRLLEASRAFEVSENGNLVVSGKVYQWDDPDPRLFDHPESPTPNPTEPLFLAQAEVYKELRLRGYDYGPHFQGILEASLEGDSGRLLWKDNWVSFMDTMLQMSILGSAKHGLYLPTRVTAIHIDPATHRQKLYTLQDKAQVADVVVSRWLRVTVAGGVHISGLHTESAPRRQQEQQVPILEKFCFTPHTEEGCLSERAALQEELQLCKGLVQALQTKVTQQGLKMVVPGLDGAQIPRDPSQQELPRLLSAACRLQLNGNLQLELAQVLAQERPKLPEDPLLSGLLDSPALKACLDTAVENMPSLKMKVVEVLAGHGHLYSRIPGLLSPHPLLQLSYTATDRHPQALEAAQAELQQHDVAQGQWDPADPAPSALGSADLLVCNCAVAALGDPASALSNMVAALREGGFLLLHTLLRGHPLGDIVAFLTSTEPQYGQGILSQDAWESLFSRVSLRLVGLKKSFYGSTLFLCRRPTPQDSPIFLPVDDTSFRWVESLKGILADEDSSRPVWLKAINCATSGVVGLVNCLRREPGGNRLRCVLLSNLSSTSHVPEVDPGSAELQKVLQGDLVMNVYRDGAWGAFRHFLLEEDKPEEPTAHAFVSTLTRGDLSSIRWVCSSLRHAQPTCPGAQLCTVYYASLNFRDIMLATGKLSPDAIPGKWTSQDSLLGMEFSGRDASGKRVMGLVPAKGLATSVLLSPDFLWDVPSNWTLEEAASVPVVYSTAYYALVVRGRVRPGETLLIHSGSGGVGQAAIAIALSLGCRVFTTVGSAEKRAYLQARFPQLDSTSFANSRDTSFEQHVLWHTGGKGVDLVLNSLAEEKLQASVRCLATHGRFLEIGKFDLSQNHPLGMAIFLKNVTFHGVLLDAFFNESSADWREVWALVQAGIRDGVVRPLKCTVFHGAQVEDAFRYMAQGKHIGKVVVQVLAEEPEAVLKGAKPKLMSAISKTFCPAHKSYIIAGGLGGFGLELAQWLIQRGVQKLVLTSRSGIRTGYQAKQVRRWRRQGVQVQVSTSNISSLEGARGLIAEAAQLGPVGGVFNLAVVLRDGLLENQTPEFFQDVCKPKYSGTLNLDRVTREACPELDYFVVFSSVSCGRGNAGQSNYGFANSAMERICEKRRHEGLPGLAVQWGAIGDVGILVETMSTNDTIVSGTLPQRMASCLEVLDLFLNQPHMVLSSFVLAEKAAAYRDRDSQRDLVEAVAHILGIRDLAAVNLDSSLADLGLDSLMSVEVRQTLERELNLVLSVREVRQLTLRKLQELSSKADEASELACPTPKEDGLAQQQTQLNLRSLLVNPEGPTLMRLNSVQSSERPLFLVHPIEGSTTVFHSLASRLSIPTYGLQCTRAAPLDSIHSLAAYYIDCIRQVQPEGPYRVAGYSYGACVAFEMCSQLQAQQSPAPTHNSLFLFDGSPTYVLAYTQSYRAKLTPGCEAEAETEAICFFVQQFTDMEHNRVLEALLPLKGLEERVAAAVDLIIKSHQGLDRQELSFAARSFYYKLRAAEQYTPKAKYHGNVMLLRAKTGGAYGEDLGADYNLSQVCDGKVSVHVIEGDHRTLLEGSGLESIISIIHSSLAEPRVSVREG
# assay_protocol: FAS thioesterase domain inhibitors, dose response, biochemical, endpoint fluorescence intensity, uHTS hits (AID 624327);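 note: fluorescence from hydrolysis of an O-methyl fluorescein acyl ester substrate by the enzyme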
# Format: functional
Calls of active or inactive are those of the source.
Outcomes: active, inactive

In [3]: df
Out[3]:
                                   compound  label_value
0  CN(Cc1ccc(C(C)(C)C)cc1)C(=O)Cc1ccc(S(=O)(=O)N2CCOCC2)s1       active
1  COc1ccc(N2CCN(C(=O)CSc3ccc([N+](=O)[O-])cc3)CC2)cc1     inactive
2  COc1ccc(/C=C(\NC(=O)c2ccc([N+](=O)[O-])cc2)C(=O)NCCCN2CCOCC2)cc1       active
3  COc1cc(C(=O)COC(=O)c2cc([N+](=O)[O-])ccc2N2CCOCC2)ccc1OC(F)F       active
4  CC(CCc1ccccc1)NC(=O)COC(=O)c1cc(NS(=O)(=O)c2ccc(Cl)c([N+](=O)[O-])c2)ccc1O (stereo unspecified)       active
5  O=C(Nc1cccc(Cl)c1)c1cc([N+](=O)[O-])ccc1N1CCN(CCO)CC1       active

----------
# system: Protein RecA (Mycobacterium tuberculosis, UniProt P9WHJ3)
# Sequence (P9WHJ3 whole entry): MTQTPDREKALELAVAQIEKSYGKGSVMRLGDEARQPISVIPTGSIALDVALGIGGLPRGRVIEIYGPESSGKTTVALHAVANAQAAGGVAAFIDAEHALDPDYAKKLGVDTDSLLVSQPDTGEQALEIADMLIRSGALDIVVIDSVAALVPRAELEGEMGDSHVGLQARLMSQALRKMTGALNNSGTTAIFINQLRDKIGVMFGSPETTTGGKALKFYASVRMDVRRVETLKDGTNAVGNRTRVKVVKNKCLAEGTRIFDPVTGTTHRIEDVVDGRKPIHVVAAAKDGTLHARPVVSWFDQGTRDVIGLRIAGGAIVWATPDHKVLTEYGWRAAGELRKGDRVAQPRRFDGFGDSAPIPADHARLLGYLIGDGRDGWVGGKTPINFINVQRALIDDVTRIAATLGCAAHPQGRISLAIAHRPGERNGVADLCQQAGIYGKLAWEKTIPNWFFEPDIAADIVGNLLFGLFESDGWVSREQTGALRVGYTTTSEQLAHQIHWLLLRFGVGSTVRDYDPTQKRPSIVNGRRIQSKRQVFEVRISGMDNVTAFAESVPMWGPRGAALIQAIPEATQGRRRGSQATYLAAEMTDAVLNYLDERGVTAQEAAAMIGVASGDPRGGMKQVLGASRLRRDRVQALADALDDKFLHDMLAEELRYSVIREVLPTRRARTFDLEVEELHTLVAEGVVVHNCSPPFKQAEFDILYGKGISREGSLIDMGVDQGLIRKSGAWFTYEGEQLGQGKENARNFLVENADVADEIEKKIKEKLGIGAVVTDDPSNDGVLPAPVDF
# assay_protocol: Fluorescence Cell-Free Homogeneous Dose Retest to Identify Inhibitors of RecA-Intein Splicing Activity. [Related pubchem assays (depositor defined):AID2097, AID2223, AID489010, AID492950]
# Type: functional
Active and inactive are the calls of the source.
Outcomes: TRUE (active), FALSE (inactive)

>>> df
                                    compound  label_value
 0  COC(=O)CSc1nc(N)c2c3c(sc2n1)C(c1ccccc1)SC(c1ccccc1)C3 (configuration not stated)        FALSE
 1  CC(CCc1ccccc1)NC(=O)COC(=O)c1cc(NS(=O)(=O)c2ccc(Cl)c([N+](=O)[O-])c2)ccc1O (configuration not stated)         TRUE
 2               CCCCCCCN(C(=O)CCl)c1ccccc1C         TRUE
 3  CC1=NNC(=O)C1C(c1ccc(F)cc1)C(C#N)C#N (configuration not stated)         TRUE
 4  Cc1[nH]n(-c2ccccc2)c(=O)c1C(C[N+](=O)[O-])c1ccc(F)cc1 (configuration not stated)         TRUE
 5  C[C@@H]1CC=C[C@H]2[C@H]1C(=O)N(Cc1ccccc1)[C@H]2c1ccc(F)c(Br)c1         TRUE
 6                Oc1cc(-c2ccc(Br)cc2)[nH]n1         TRUE
 7  Cc1n[nH]c2c1C(c1c(C)nn(-c3ccccc3)c1Cl)C(C#N)=C(N)O2 (configuration not stated)         TRUE
 8     Cc1cc2[nH]ncc2cc1NC(=S)NC(=O)c1ccccc1        FALSE
 9  Cc1n[nH]c(O)c1C(c1ccc(-c2ccc(F)cc2)o1)c1c(C)n[nH]c1O         TRUE
10  CCC1=Nc2cc(C(=O)NCCN3CCCC3)ccc2Sc2ccccc21        FALSE
11       COc1ccc(/N=C/C2=C(O)c3ccccc3CC2)cc1         TRUE
12  Cn1cnc([N+](=O)[O-])c1Sc1nnc(-c2cccnc2)n1C         TRUE
13  CC(C)c1n[nH]c2c1C(Cc1ccccc1)C(C#N)=C(N)O2 (configuration not stated)         TRUE
14                  Nc1ccc2nc(N3CCOCC3)sc2c1         TRUE
15  COc1ccc(/C=C(/C#N)C(=O)Nc2ccc(O)cc2)cc1C(=O)O         TRUE
16        CCCCCCCCCCn1c2c(c(=N)c3c1CCC3)CCC2         TRUE
